test: Polarographic study of electrochemical reduction (electrochemical activity); type: physicochemical; conditions: pH 7.4; 37° C.; forward trace; average for the group
Readout type: −E1/2, V (half-wave potential vs SCE)
Record the result as a number with its unit.

compound=O=c1[nH][nH]c(=O)c2ncccc12.[Na] result="0.105 ± 0.01 V"
compound=O=c1[nH][nH]c(=O)c2ncncc12.[Li] result="0.085 ± 0.02 V"
compound=Nc1cccc2c(=O)[nH][nH]c(=O)c12.[Na] result="0.092 ± 0.02 V"
compound=O=c1[nH]n([C@@H]2O[C@H](CO)[C@@H](O)[C@H]2O)c(=O)c2nc(O)cnc12.[Na].[Na] result="0.175 ± 0.01 V"
compound=O=C([O-])c1ccc2c(=O)[nH][nH]c(=O)c2c1.O=C([O-])c1ccc2c(=O)[nH][nH]c(=O)c2c1.[Na+].[Na+] result="0.092 ± 0.02 V"
compound=O=c1[nH][nH]c(=O)c2nccnc12.[Li] result="0.175 ± 0.01 V"
compound=O=c1[nH]n([C@@H]2O[C@H](CO)[C@@H](O)[C@H]2O)c(=O)c2ncnc(O)c12.[Na] result="0.085 ± 0.02 V"
compound="COP(=O)(OC)C(C)(C)CC(C)=O [dimephosphon, reference compound]" result="0.18 ± 0.01 V"

Pending compound:
Task item: Item Nc1ncc2c(=O)[nH][nH]c(=O)c2n1 : provide −E1/2, V (half-wave potential vs SCE)
Reply: 0.085 ± 0.02 V
